target: human PDE10A (UniProt Q9Y233); assay: Measurement of PDE activity (recombinant enzyme, HTRF cAMP kit); type: biochemical; conditions: Table 1, substrate 20 nM for PDE10, 60 minutes at 29 C, read-out: IC50
Sequence (Q9Y233 290-1055 limits assumed): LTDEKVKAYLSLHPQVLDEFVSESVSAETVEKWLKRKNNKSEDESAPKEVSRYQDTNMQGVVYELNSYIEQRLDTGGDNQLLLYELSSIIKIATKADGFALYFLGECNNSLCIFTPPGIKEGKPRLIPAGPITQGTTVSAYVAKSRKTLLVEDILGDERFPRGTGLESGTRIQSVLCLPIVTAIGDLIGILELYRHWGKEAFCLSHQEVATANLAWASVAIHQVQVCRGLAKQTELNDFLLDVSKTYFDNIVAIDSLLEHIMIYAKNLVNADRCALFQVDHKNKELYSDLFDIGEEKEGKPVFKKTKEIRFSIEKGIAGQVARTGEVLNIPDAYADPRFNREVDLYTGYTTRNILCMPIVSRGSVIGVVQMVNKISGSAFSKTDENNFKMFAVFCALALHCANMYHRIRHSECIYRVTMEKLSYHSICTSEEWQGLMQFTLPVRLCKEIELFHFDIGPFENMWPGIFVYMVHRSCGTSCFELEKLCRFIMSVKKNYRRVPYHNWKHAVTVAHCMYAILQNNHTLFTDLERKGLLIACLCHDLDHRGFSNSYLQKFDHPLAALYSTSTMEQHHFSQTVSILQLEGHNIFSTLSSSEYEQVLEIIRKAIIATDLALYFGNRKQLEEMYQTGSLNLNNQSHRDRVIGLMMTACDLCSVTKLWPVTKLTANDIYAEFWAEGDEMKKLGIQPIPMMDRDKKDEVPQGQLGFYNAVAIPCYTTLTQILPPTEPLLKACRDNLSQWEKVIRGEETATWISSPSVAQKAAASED
Where a name gives a salt, the structure may show the parent alone.
IC50: recorded values

Some solved entries appear below for comparison.
>>> measured("O=c1c2cccc(N3CCOCC3)c2ccn1C1CC1c1ccc2ccccc2n1 (stereo not shown)")
"< 100 nM"
>>> measured("O=c1c2c(-c3cccc(O)c3)cccc2cnn1CCc1ccc2ccccc2n1")
"< 100 nM"
>>> measured("O=c1c2c(N3CCOCC3)ccnc2cnn1CCc1ccc2ccccc2n1")
"< 100 nM"
>>> measured("O=c1c2c(-c3ccncc3)csc2cnn1CCc1cn2ccccc2n1")
"< 100 nM"
>>> measured("O=c1c2c(-c3ccnc(F)c3)cccc2ccn1C1CC1c1ccc2ccccc2n1 (single isomer, unassigned)")
"< 100 nM"

Inquiry: What does the record list as IC50 for `Cc1cc(-c2csc3cnn(CCc4ccc5ccccc5n4)c(=O)c23)ccn1` ?
Reply text: < 100 nM

Inquiry: Find the recorded IC50 belonging to O=c1c2c(C3CCNCC3)cccc2cnn1CCc1cn2ccccc2n1 [compound 354, hydrochloride] and report it.
Reply text: < 100 nM

Inquiry: So what's the measured IC50 for this one? `O=c1c2c(-c3ccc4[nH]ncc4c3)csc2cnn1CCc1ccc2ccccc2n1`
Reply text: < 100 nM

Inquiry: Look up IC50: `O=c1c2c(-c3cc[nH]n3)cccc2cnn1CCc1cn2ccccc2n1`
Reply text: 200 to 500 nM

Inquiry: // lookup IC50 for `O=c1c2c(-c3ccc(F)cc3F)csc2cnn1CCc1ccc2ccccc2n1`
Reply text: 100 to 200 nM

Inquiry: Which IC50 is reported for this molecule? COC1CCN(c2cccc3ccn([C@@H]4C[C@H]4c4ccc5ccccc5n4)c(=O)c23)CC1 (relative stereo)
Reply text: < 100 nM

Inquiry: I'd like to know its IC50. The molecule in question is `O=c1c2cccc(-c3ccncc3)c2cnn1CCc1cn2ccccc2n1`
Reply text: < 100 nM

Inquiry: Quick one: IC50 for `O=c1c2c(-c3ccncc3)cccc2c(-c2ccncc2)nn1CCc1cn2ccccc2n1` ?
Reply text: < 100 nM

Inquiry: Look up IC50 for this molecule: `O=c1c2c(-c3ccncc3)csc2cnn1CCc1ccc2ccc(F)cc2n1`
Reply text: 200 to 500 nM

Inquiry: Would you mind telling me what IC50 value was observed for O=c1c2c(-c3ccco3)cccc2cnn1CCc1cn2ccccc2n1 [compound 358, hydrochloride] ?
Reply text: 100 to 200 nM

Inquiry: Item O=c1c2c(NC3COC3)cccc2ccn1[C@@H]1C[C@H]1c1ccc2ccccc2n1 (racemic) has what recorded IC50?
Reply text: < 100 nM
